- system-under-test: T1, Human IL-7R-hFc antigen (R&D systems) (human, UniProt P16871 21-239)
- T1 construct: Bought from R&D Systems; not shown: human Fc (hFc) of the bought fusion
- T1 sequence (looked up): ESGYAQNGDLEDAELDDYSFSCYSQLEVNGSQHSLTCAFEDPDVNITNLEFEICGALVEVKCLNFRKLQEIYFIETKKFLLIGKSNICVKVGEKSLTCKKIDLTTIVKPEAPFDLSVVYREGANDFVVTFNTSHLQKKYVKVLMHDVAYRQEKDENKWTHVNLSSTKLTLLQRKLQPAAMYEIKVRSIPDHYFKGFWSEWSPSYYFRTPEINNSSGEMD
- experimental-protocol: SPR (Biacore 2000/3000), IL-7R-hFc captured on anti-human Fc, antibody as analyte
measured-parameter: kon (M⁻¹ s⁻¹)

binder	measured-parameter	unit-abbrev	reported-result
C2M3 (hIgG1) (antibody, V domains shown, Only variable domains are tied to C2M3) VH: EVQLVESGGGLVKPGGSLRLSCAASGFTFDDSVMHWVRQAPGKGLEWVSLVGWDGFFTYYADSVKGRFTISRDNAKNSLYLQMNSLRAEDTAVYYCARQGDYMGNNWGQGTLVTVSS VL: NFMLTQPHSVSESPGKTVTISCTRSSGSIDSSYVQWYQQRPGSSPTTVIYEDDQRPSGVPDRFSGSIDSSSNSASLTISGLKTEDEADYYCMQYDFHHLVFGGGTKLTVL	kon	M⁻¹ s⁻¹	1.41e+06
C2M3 (hIgG2ΔA) (antibody, V domains shown, the footnote is printed with **); Only variable domains are tied to C2M3) VH: EVQLVESGGGLVKPGGSLRLSCAASGFTFDDSVMHWVRQAPGKGLEWVSLVGWDGFFTYYADSVKGRFTISRDNAKNSLYLQMNSLRAEDTAVYYCARQGDYMGNNWGQGTLVTVSS VL: NFMLTQPHSVSESPGKTVTISCTRSSGSIDSSYVQWYQQRPGSSPTTVIYEDDQRPSGVPDRFSGSIDSSSNSASLTISGLKTEDEADYYCMQYDFHHLVFGGGTKLTVL	kon	M⁻¹ s⁻¹	1.55e+06
C1GM Fab (Fab, V domains shown) VH: EVQLVESGGGLVKPGGSLRLSCAASGFTFDDSVMHWVRQAPGKGLEWVSLVGWDGFFTYYADSVKGRFTISRDNAKNSLYLQMNSLRAEDTAVYYCARQGDYMGNNWGQGTLVTVSS VL: NFMLTQPHSVSESPGKTVTISCTRSSGSIDSSYVQWYQQRPGSSPTTVIYEDDQRPSGVPDRFSGSIDSSSNSASLTISGLKTEDEADYYCQSYDFHHLVFGGGTKLTVL	kon	M⁻¹ s⁻¹	4.85e+06
P3A9 Fab (Fab, V domains shown) VH: QVNLRESGGGLVKPGGSLRLSCAASGFTFDDSVMHWVRQAPGKGLEWLSLVGWDGSATYYADSVKGRFTISRDNTKNLLYLQMNSLRAEDTAVYYCARQGDYVFDYWGQGTLVTVSS VL: NFMLTQPHSVSGSPGKTVTISCTRSSGSIDSSYVQWYQQRPGNSPTTVIYEDDQRPSGVPDRFSGSIDSSSNSASLTISGLVTEDEADYYCQSYDSSHLVFGGGTKLTVLC	kon	M⁻¹ s⁻¹	56000
HAL403a Fab (Fab, V domains shown) VH: QVNLRESGGGLVKPGGSLRLSCAASGFTFDDSVMHWVRQAPGKGLEWLSLVGWDGFFTYYADSVKGRFTISRDNTKNLLYLQMNSLRAEDTAVYYCARQGDYMGNNWGQGTLVTVSS VL: NFMLTQPHSVSGSPGKTVTISCTRSSGSIDSSYVQWYQQRPGNSPTTVIYEDDQRPSGVPDRFSGSIDSSSNSASLTISGLVTEDEADYYCQSYDFHHLVFGGGTKLTVLC	kon	M⁻¹ s⁻¹	5.07e+06
